# measurementTarget: Recombinant human His6-USP1/His6-UAF1 complex protein (Homo sapiens, UniProt O94782)
# Construct: His6
# Sequence (O94782 whole entry): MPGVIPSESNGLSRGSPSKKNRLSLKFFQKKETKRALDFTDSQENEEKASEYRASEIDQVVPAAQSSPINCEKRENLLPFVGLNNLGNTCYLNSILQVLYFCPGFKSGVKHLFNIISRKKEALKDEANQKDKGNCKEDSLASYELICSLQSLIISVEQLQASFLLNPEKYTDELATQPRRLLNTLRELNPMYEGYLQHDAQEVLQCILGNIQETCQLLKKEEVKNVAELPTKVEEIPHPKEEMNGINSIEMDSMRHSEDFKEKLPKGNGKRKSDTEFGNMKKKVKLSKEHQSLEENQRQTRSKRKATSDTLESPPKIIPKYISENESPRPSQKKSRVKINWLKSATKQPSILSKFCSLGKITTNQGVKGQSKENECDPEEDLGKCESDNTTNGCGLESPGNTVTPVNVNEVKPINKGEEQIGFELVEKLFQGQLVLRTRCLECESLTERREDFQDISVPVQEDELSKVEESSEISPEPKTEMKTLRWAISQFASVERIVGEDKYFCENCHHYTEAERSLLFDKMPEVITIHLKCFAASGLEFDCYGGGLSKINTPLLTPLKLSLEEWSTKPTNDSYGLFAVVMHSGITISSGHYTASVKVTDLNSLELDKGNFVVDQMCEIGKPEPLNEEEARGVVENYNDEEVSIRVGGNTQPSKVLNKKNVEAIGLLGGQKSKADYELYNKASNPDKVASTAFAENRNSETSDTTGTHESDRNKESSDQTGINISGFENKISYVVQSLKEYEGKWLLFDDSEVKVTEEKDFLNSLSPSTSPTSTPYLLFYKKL
# Sequence (Q8TAF3 whole entry partner): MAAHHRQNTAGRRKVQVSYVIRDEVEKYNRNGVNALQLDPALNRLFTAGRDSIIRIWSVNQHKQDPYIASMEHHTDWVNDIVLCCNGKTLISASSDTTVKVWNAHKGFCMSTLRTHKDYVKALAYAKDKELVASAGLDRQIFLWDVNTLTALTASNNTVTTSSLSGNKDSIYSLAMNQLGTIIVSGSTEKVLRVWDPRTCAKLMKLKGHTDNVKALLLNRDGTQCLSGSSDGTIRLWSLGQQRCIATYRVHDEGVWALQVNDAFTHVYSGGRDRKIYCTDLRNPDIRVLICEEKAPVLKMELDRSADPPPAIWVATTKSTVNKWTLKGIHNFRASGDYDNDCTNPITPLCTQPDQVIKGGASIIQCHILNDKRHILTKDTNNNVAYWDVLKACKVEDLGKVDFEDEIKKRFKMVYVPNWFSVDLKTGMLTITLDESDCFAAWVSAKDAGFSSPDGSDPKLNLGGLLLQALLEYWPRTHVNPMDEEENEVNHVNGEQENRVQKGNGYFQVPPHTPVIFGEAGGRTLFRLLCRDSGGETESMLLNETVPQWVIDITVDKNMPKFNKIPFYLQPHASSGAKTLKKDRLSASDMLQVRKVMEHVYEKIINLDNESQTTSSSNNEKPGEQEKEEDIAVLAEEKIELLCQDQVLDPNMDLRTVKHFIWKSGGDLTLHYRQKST
# measurementProtocol: In vitro inhibitory activity against USP1 (Ubiquitin Rhodamine 110 fluorescence detection, 384-well plate)
# experimentalConditions: Ub-Rho substrate, 1 hour pre-incubation, read after 30 minutes
pIC50: −log10 of the molar value.
endpoint: pIC50

Some molecules with recorded pIC50:
CC(C)Oc1cnc(-c2ccccc2C(C)C)nc1NCC12CCC(c3ccc(C(F)(F)F)cn3)(CC1)CC2 [Example 74] = 6.06
COc1cnc(-c2c(OC)ncnc2C2CC2)nc1NCc1ccc(-n2nc(C(F)(F)F)cc2C)cc1 [Example 26] = 8.34
[2H]C([2H])([2H])Oc1ncnc(C2CC2)c1-c1ncc(OC)c(NCC23CCC(c4nc(C(F)(F)F)cn4C)(CC2)CC3)n1 [Example S5] = 7.85
COc1cnc(-c2c(OC)ncnc2C2CC2)nc1NCc1ccc2c(c1)CCN(C(C)C)C2=O [Example 97] = 6.58
COc1cnc(-c2c(OC)ncnc2C2CC2)nc1N(C)C[C@H]1CC[C@H](c2nc(C(F)(F)F)cn2C(C)C)CC1 [Example S26] = 7.89

A = COc1cc(CNc2nc(-c3c(OC)ncnc3C3CC3)nc3ccoc23)ccc1-n1nc(C(F)(F)F)cc1C [Example 122]
B = COc1ncnc(C2CC2)c1-c1ncc(OC(C)C)c(NCC23CCC(c4ccc(C(F)(F)F)cn4)(CC2)CC3)n1 [Example 112]
C = COc1cc(-c2nc(C(F)(F)F)cn2C)ccc1CNc1nc(-c2ccccc2C(C)C)nc2ccoc12 [Example 81]
D = COc1cnc(-c2c(Cl)cnn2C(C)C)nc1NCC12CCC(c3nc(C(F)(F)F)cn3C)(CC1)OC2 [Example 209]
Let's sort these by pIC50, smallest first. Go ahead? List the labels, following the order given in the request.
B, A, C, D
(B: 6.57, A: 7.89, C: 8.43, D: 8.80)

----------
# measurementTarget: Recombinant human His6-USP1/His6-UAF1 complex protein (Homo sapiens)
# Construct: His6
# measurementProtocol: In vitro inhibitory activity against USP1 (Ubiquitin Rhodamine 110 fluorescence detection, 384-well plate)
# experimentalConditions: Ub-Rho substrate, 1 hour pre-incubation, read after 30 minutes
pIC50: −log10 of the molar value.
endpoint: pIC50

COc1cnc(-c2c(OC)ncnc2C2CC2)nc1N(Cc1ccc(-c2nc(C(F)(F)F)cn2C)cc1)C1CC1 [Example 141] = 8.02
COc1cnc(-c2cncnc2C2CC2)nc1N(C)Cc1ccc(-c2nc(C(F)(F)F)cn2C)cc1 [Example 193] = 7.06
[2H]C([2H])([2H])N(Cc1ccc(-c2nc(C(F)(F)F)cn2CF)cc1)c1nc(-c2c(OC)ncnc2C2CC2)ncc1F [Example 130] = 7.72
[2H]C([2H])([2H])N(Cc1ccc(-c2nc(C(F)(F)F)cn2C(C)C)cc1)c1nc(-c2c(OC)ncnc2C2CC2)ncc1F [Example 129] = 8.05

I = COc1cnc(-c2ccccc2C(C)C)nc1NCc1ccc(OCc2ccccn2)cc1 [Example 67]
II = CCOCCOc1ccc(CNc2nc(-c3ccccc3C(C)C)ncc2OC)cc1 [Example 68]
III = COc1ncnc(C2CC2)c1-c1ncc2c(n1)N(C[C@H]1CC[C@H](c3nc(C(F)(F)F)cn3C)CC1)CCO2 [Example 22]
Arrange by pIC50, high to low. List the labels, following the order given in the request.
II, I, III
(II: 8.49, I: 8.28, III: 7.61)

1 = COc1cnc(-c2cccc3c2N(C)CC3)nc1NCc1ccc(-c2nc(C(F)(F)F)cn2C)cc1 [Example 145]
2 = COc1cnc(-c2c(OC)ncnc2C2CC2)nc1N(C)CC1CCN(c2nc(C(F)(F)F)cn2C)CC1 [Example 92]
3 = C#Cc1cnc(-c2c(OC)ncnc2C2CC2)nc1NCc1ccc(-c2nc(C(F)(F)F)cn2C)cc1 [Example 132]
4 = COc1cnc(-c2c(OC)cnn2C2CC2)nc1NCc1ccc(-c2ccccn2)cc1 [Example 183]
Let's sort these by pIC50, smallest first. Go ahead? List the labels, following the order given in the request.
4, 1, 3, 2
(4: 6.79, 1: 7.72, 3: 8.22, 2: 8.48)

A = COc1ncnc(C2CC2)c1-c1ncc(Cl)c(NCc2ccc(-c3nc(C(F)(F)F)cn3C3CC3)cc2)n1 [Example 125]
B = COc1ncnc(C2CC2)c1-c1ncc(OC(C)C)c(N(C)Cc2ccc(-c3nc(C(F)(F)F)cn3C)cc2)n1 [Example 109]
Select one. Lower pIC50: A or B Your answer should be the label attached to the chosen record.
B
